- targetSystem: DRB1*0301 (DR3) (Homo sapiens, UniProt P01903+P01911, A100K/A102G/A103R/A169T/F55Y/I96L/K41T/L162R/M171V/P40S/Q125H/Q178H/Q39Y/R42S/S66N/T106N/T262R/W38E/Y61H)
- Sequence (P01903 26-254 limits assumed, other chains not shown): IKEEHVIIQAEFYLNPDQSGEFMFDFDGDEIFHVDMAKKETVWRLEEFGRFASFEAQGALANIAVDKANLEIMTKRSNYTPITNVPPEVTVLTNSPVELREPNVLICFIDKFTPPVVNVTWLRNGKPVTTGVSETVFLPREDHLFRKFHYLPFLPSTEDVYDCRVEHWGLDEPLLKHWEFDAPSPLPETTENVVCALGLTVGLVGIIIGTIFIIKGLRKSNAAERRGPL
- protocolDescription: HLA class II peptide binding assay, purified HLA
- conditionInfo: Table XIX, DR supermotif peptides; unit not given
readoutKind: DR3 binding data
When you answer, write just the number.

>>> numericreadout("CC[C@H](C)[C@H](NC(=O)[C@H](C)NC(=O)[C@@H](NC(=O)[C@@H]1CCCN1C(=O)[C@@H](NC(=O)[C@H](CCCCN)NC(=O)[C@@H](NC(=O)[C@H](CC(N)=O)NC(=O)[C@H](CCC(=O)O)NC(=O)CN)C(C)C)[C@@H](C)CC)C(C)C)C(=O)N[C@@H](CCCCN)C(=O)N[C@H](C(=O)N[C@@H](CC(C)C)C(=O)N[C@@H](CCCNC(=N)N)C(=O)N[C@@H](CCC(=O)O)C(=O)O)C(C)C")
0.0098

Continue with the molecule presented below.
Item CC(C)C[C@H](NC(=O)[C@H](CO)NC(=O)[C@H](C)NC(=O)[C@H](CC(N)=O)NC(=O)[C@@H](NC(=O)[C@@H]1CCCN1C(=O)[C@H](CC(C)C)NC(=O)[C@H](Cc1ccc(O)cc1)NC(=O)[C@@H](NC(=O)[C@@H](N)CC(C)C)[C@@H](C)O)[C@@H](C)O)C(=O)N[C@@H](CO)C(=O)N[C@@H](Cc1ccccc1)C(=O)N[C@@H](CC(C)C)C(=O)N[C@@H](CCC(N)=O)C(=O)N[C@@H](CC(=O)O)C(=O)O : provide DR3 binding data
0.0150

---

The following compounds are shown together with reported DR4w4 binding data values.
- targetSystem: DRB1*0401 (DR4w4) (Homo sapiens, UniProt P01903+P01911, A100K/A169T/F76Y/I96L/K127E/L162R/M171V/N62H/P40V/Q125Y/R42H/S133A/S149N/S66Y/V115G/V209L/W38E)
- protocolDescription: HLA class II peptide binding assay, purified HLA
- conditionInfo: Table XIX, DR supermotif peptides; unit not given
When you answer, write just the number.

Below: 2 compounds and their reported DR4w4 binding data.
>>> numericreadout("CC(C)C[C@H](NC(=O)[C@H](CO)NC(=O)[C@H](C)NC(=O)[C@H](CC(N)=O)NC(=O)[C@@H](NC(=O)[C@@H]1CCCN1C(=O)[C@H](CC(C)C)NC(=O)[C@H](Cc1ccc(O)cc1)NC(=O)[C@@H](NC(=O)[C@H](CC(C)C)NC(=O)[C@H](CCC(=O)O)NC(=O)[C@H](CC(C)C)NC(=O)[C@@H](N)CC(N)=O)[C@@H](C)O)[C@@H](C)O)C(=O)N[C@@H](CO)C(=O)N[C@@H](Cc1ccccc1)C(=O)O")
0.3800
>>> numericreadout("CSCC[C@H](NC(=O)[C@H](CC(C)C)NC(=O)[C@H](CCC(N)=O)NC(=O)[C@@H](NC(=O)[C@@H](NC(=O)[C@H](CC(C)C)NC(=O)[C@H](CCC(N)=O)NC(=O)[C@@H](NC(=O)[C@@H](N)[C@@H](C)O)C(C)C)C(C)C)[C@@H](C)O)C(=O)N1CCC[C@H]1C(=O)N[C@@H](Cc1ccc(O)cc1)C(=O)NCC(=O)N[C@@H](CS)C(=O)N[C@@H](CC(C)C)C(=O)N[C@@H](CC(C)C)C(=O)O")
0.0460

Continue with the compound presented below.
Item CC[C@H](C)[C@H](NC(=O)[C@@H]1CCCN1)C(=O)N[C@@H](CCCCN)C(=O)N[C@@H](Cc1c[nH]c2ccccc12)C(=O)N[C@@H](CCSC)C(=O)N[C@@H](C)C(=O)N[C@@H](CC(C)C)C(=O)N[C@@H](CCC(=O)O)C(=O)N[C@@H](CO)C(=O)N[C@H](C(=O)N[C@@H](CC(C)C)C(=O)N[C@@H](CCCNC(=N)N)C(=O)N[C@@H](CCCNC(=N)N)C(=O)N[C@@H](CCCNC(=N)N)C(=O)N[C@@H](Cc1ccccc1)C(=O)O)[C@@H](C)CC : provide DR4w4 binding data
0.0350

---

- System: HLA-DR molecules (DR1, DR4w4, DR7, DRB5*0101, DRB1*1501, DRB1*1101, DRB1*0802, DRB1*1302)
- protocolDescription: DR supertype cross-reactive binding
- Set-up: species or system human
- conditionInfo: number of DR1, DR4w4, DR7 bound, Table XXIX
The following molecules are shown together with reported DR147 Binding values.
When you answer, write just the number.

Below: 2 molecules and their reported DR147 Binding.
>>> numericreadout("CC[C@H](C)[C@H](NC(=O)[C@H](CCC(N)=O)NC(=O)[C@H](CCSC)NC(=O)[C@H](CS)NC(=O)[C@H](Cc1c[nH]c2ccccc12)NC(=O)[C@H](CC(N)=O)NC(=O)[C@H](CC(C)C)NC(=O)[C@@H](N)CC(C)C)C(=O)N[C@@H](C)C(=O)N[C@@H](CCCCN)C(=O)NCC(=O)N[C@@H](CCSC)C(=O)N[C@@H](CO)C(=O)N[C@@H](Cc1ccc(O)cc1)C(=O)N[C@@H](CC(C)C)C(=O)O")
2
>>> numericreadout("CC[C@H](C)[C@H](NC(=O)[C@H](CCSC)NC(=O)[C@H](Cc1ccc(O)cc1)NC(=O)[C@@H](NC(=O)[C@H](CC(=O)O)NC(=O)[C@@H](NC(=O)[C@@H](NC(=O)[C@H](CS)NC(=O)[C@@H](NC(=O)[C@@H]1CCCN1C(=O)[C@@H]1CCCN1C(=O)[C@@H](N)CCC(N)=O)[C@@H](C)CC)[C@@H](C)O)[C@@H](C)CC)C(C)C)C(=O)N[C@@H](CCSC)C(=O)N[C@H](C(=O)N[C@@H](CCCCN)C(=O)O)C(C)C")
2

Continue with the molecule presented below.
Item CC[C@H](C)[C@H](NC(=O)CNC(=O)[C@H](CC(=O)O)NC(=O)[C@H](Cc1ccc(O)cc1)NC(=O)[C@@H]1CCCN1C(=O)[C@H](CCCCN)NC(=O)[C@H](C)NC(=O)CNC(=O)[C@H](Cc1ccccc1)NC(=O)[C@@H](NC(=O)[C@H](CCSC)NC(=O)[C@H](CC(C)C)NC(=O)[C@H](CCC(=O)O)NC(=O)[C@H](Cc1c[nH]c2ccccc12)NC(=O)[C@@H](N)C(C)C)[C@@H](C)O)C(=O)O : provide DR147 Binding
3

---

- targetSystem: HLA-A*2402 (Homo sapiens, UniProt P04439, D101N/D140Y/D185E/E176V/E190D/F33S/G103R/G107R/I119L/I121M/I306V/K335N/L105A/L180Q/L300P/N151K/N90K/Q86E/Q94H/R106L/R138H/R89G/T104I/T345S/V100E/W191G/Y123F)
- Assay type: binding
- conditionInfo: HLA-A24 motif-bearing peptides, Table XXVI
Where no end group is shown, it is not given here.
readoutKind: pIC50
Please report pIC50 as the negative decimal logarithm of the molar concentration, giving only the number.

>>> numericreadout("TYLPTNASL")
6.50

Continue with the sequence presented below.
Item RWGLLLAL [RWGLLLAL] : provide pIC50
6.32

---

- targetSystem: DRB1*0701 (DR7) (Homo sapiens, UniProt P01903+P01911, A100R/A102G/A103Q/D57E/D86V/E43K/F76Y/K127E/L162R/M171V/P40G/Q125H/Q99D/R33Q/R42Y/R54Q/S133A/S66F/T210M/V115G/Y107V/Y59L/Y89S)
- protocolDescription: HLA class II peptide binding assay, purified HLA
- conditionInfo: Table XIX, DR supermotif peptides; unit not given
The following compounds are shown together with reported DR7 binding data values.
When you answer, write just the number.

>>> numericreadout("CC[C@H](C)[C@H](NC(=O)[C@H](CCCCN)NC(=O)[C@H](CCCCN)NC(=O)[C@@H](N)CS)C(=O)N[C@@H](Cc1ccccc1)C(=O)NCC(=O)N[C@@H](CO)C(=O)N[C@@H](CC(C)C)C(=O)N[C@@H](C)C(=O)N[C@@H](Cc1ccccc1)C(=O)N[C@@H](CC(C)C)C(=O)N1CCC[C@H]1C(=O)N[C@@H](CCC(=O)O)C(=O)N[C@@H](CO)C(=O)N[C@@H](Cc1ccccc1)C(=O)O")
0.0270
>>> numericreadout("CC[C@H](C)[C@H](N)C(=O)N[C@@H](CCCCN)C(=O)N[C@@H](Cc1c[nH]c2ccccc12)C(=O)N[C@@H](CCSC)C(=O)N[C@@H](C)C(=O)N[C@@H](CC(C)C)C(=O)N[C@@H](CCC(=O)O)C(=O)N[C@@H](CO)C(=O)N[C@H](C(=O)N[C@@H](CC(C)C)C(=O)N[C@@H](CCCNC(=N)N)C(=O)N[C@@H](CCCNC(=N)N)C(=O)N[C@@H](CCCNC(=N)N)C(=O)N[C@@H](Cc1ccccc1)C(=O)N[C@H](C(=O)O)[C@@H](C)O)[C@@H](C)CC")
0.0040
>>> numericreadout("CSCC[C@H](NC(=O)[C@H](CC(C)C)NC(=O)[C@H](CCC(N)=O)NC(=O)[C@@H](NC(=O)[C@@H](NC(=O)[C@H](CC(C)C)NC(=O)[C@H](CCC(N)=O)NC(=O)[C@@H](NC(=O)[C@@H](N)[C@@H](C)O)C(C)C)C(C)C)[C@@H](C)O)C(=O)N1CCC[C@H]1C(=O)N[C@@H](Cc1ccc(O)cc1)C(=O)NCC(=O)N[C@@H](CS)C(=O)N[C@@H](CC(C)C)C(=O)N[C@@H](CC(C)C)C(=O)O")
0.0100

Item CSCC[C@H](NC(=O)[C@H](CC(C)C)NC(=O)[C@H](CCC(=O)O)NC(=O)[C@H](Cc1c[nH]c2ccccc12)NC(=O)[C@@H](NC(=O)[C@@H](NC(=O)[C@@H](NC(=O)CN)C(C)C)[C@@H](C)O)C(C)C)C(=O)N[C@H](C(=O)N[C@@H](Cc1ccccc1)C(=O)NCC(=O)N[C@@H](C)C(=O)N[C@@H](CCCCN)C(=O)N1CCC[C@H]1C(=O)N[C@@H](Cc1ccc(O)cc1)C(=O)O)[C@@H](C)O : provide DR7 binding data
0.0170

Item CC[C@H](C)[C@H](NC(=O)[C@H](CCSC)NC(=O)[C@H](Cc1ccc(O)cc1)NC(=O)[C@@H](NC(=O)[C@H](CC(=O)O)NC(=O)[C@@H](NC(=O)[C@@H](NC(=O)[C@H](CS)NC(=O)[C@@H](NC(=O)[C@@H]1CCCN1C(=O)[C@@H]1CCCN1C(=O)[C@@H](N)CCC(N)=O)[C@@H](C)CC)[C@@H](C)O)[C@@H](C)CC)C(C)C)C(=O)N[C@@H](CCSC)C(=O)N[C@H](C(=O)N[C@@H](CCCCN)C(=O)O)C(C)C : provide DR7 binding data
0.1000

Item CC(C)C[C@H](NC(=O)[C@H](CC(=O)O)NC(=O)[C@H](CCCNC(=N)N)NC(=O)[C@H](Cc1c[nH]cn1)NC(=O)[C@@H](NC(=O)[C@H](CC(C)C)NC(=O)[C@H](CCCNC(=N)N)NC(=O)[C@@H](N)C(C)C)C(C)C)C(=O)N[C@@H](C)C(=O)N[C@@H](C)C(=O)N[C@@H](CCCNC(=N)N)C(=O)N[C@@H](CC(N)=O)C(=O)N[C@H](C(=O)N[C@@H](CC(C)C)C(=O)N[C@H](C(=O)O)C(C)C)C(C)C : provide DR7 binding data
0.0230
